- Test system: DJ-1-deficient ES cells
- PROCEDURE DETAILS: Rescue of DJ-1-deficient ES cells from H2O2, MTT viability
- Format: cell-based, murine
- CONDITION DESCRIPTION: transient transfection, 10 μM H2O2 for 15 h
EXPERIMENTAL ENDPOINT: viability of DJ-1 knockout cells in the presence of H2O2

MOLECULE: C106A/C53A/C46A: triple mutant that harbors mutations at all three cysteines in DJ-1 (protein, UniProt Q99497 1-189, looked up, variant C106A C53A C46A) MASKRALVILAKGAEEMETVIPVDVMRRAGIKVTVAGLAGKDPVQASRDVVIAPDASLEDAKKEGPYDVVVLPGGNLGAQNLSESAAVKEILKEQENRKGLIAAIAAGPTALLAHEIGFGSKVTTHPLAKDKMMNGGHYTYSENRVEKDGLILTSRGPGTSFEFALAIVEALNGKEVAAQVKAPLVLKD
TEST VALUE: failed to protect
--
MOLECULE: C53A: DJ-1 cysteine-to-alanine mutant at cysteine 53 (protein, UniProt Q99497 1-189, looked up, variant C53A) MASKRALVILAKGAEEMETVIPVDVMRRAGIKVTVAGLAGKDPVQCSRDVVIAPDASLEDAKKEGPYDVVVLPGGNLGAQNLSESAAVKEILKEQENRKGLIAAICAGPTALLAHEIGFGSKVTTHPLAKDKMMNGGHYTYSENRVEKDGLILTSRGPGTSFEFALAIVEALNGKEVAAQVKAPLVLKD
TEST VALUE: failed to protect
